# target.under.test: Microtubule-associated protein tau (Homo sapiens) (UniProt P10636)
# Sequence (P10636 whole entry, looked up): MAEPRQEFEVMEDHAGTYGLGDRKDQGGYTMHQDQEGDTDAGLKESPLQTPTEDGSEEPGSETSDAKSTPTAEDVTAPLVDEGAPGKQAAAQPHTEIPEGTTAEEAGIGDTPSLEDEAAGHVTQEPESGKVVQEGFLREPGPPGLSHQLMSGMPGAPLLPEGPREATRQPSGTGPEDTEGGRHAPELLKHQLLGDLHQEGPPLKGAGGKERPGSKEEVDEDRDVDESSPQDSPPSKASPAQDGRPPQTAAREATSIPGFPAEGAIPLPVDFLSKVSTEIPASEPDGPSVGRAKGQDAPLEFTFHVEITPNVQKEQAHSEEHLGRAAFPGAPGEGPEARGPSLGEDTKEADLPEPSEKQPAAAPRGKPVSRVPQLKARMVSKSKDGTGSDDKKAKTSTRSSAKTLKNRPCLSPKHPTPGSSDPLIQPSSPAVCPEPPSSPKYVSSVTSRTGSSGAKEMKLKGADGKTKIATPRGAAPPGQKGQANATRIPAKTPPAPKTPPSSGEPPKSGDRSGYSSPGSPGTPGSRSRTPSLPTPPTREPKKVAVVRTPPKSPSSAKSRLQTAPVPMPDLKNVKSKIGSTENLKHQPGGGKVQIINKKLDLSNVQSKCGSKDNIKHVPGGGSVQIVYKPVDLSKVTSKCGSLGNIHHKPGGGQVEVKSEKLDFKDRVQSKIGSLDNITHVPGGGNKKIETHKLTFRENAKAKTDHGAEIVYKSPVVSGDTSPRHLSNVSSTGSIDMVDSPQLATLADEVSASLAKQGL
# assay: blockers of AD brain-seeded tau fibril growth – biochemical, seed amplification, ThT fluorescence, primary screen (AID 2061166)
# measurement.setup: Recombinant tau seeded by AD brain, ThT fluorescence AUC; at 100 µM; stronger effect = higher value
Entries and their measured inhibition follow.
# output: bare number, implied unit %

Cn1cc(C2=C(c3cn(C4CCN(Cc5ccccn5)CC4)c4ccccc34)C(=O)NC2=O)c2ccccc21 = 18.6
COc1ccc2c3c([nH]c2c1)C(C)=NCC3 = 11.8

**Query** Return reported inhibition; argument: Cc1cccc(C(C)c2cnc[nH]2)c1C (centres undefined)
**Result** 17.4

**Query** // repeat for "Cn1c(CCCC(=O)O)nc2cc(N(CCCl)CCCl)ccc21" and report
**Result** 48

**Query** // repeat for O=C1C=C2C=CC3CC2(O1)C1CCCCN31 (centres undefined) and report
**Result** 17

**Query** // repeat for "COc1ccc(C(=O)O)cc1OC" and report
**Result** 11.4
